Source: PubChem BioAssay AID504332

- Assay Target: Histone-lysine N-methyltransferase EHMT2 (Homo sapiens)
- Measurement Protocol: qHTS Assay for Inhibitors of Histone Lysine Methyltransferase G9a; note: nearly all actives have a fitted effect of over 75% in size; note: potency is the fitted concentration of half-maximal effect
- Condition Description: G9a H3K9 monomethylation, AlphaScreen, 2 h; series mostly up to 59 µM
Out of some 350,000 compounds screened, about 31,000 (8.9%) were called active. Roughly 15% stayed inconclusive and do not appear here. The sample holds actives, similar compounds and a random draw of the others, so the mix is not that of the screen.
Assay Metric: Potency

1. O=C(NCc1ccccc1Cl)c1cccn1-c1nnc(N2CCCCC2)s1	inactive
2. O=c1cc(N2CCN(Cc3ccccc3)CC2)c(-c2ccccc2)n[nH]1	inactive
3. COc1cc(OC)c(C(=O)OCC(=O)N2CC(=O)Nc3ccccc32)cc1OC	inactive
4. CCCOc1ccccc1-c1nc(SCCC(=O)O)n[nH]1	11.2 µM (active)
5. Cc1nn2c(=O)cc(COC(=O)CNC(=O)c3ccc(F)cc3)nc2s1	inactive
6. COc1ccccc1-c1nc(SC)n[nH]1	inactive
7. Cc1ccc(S(=O)(=O)N2CCC(C(=O)OCC(=O)N3CC(=O)Nc4ccccc43)CC2)cc1	inactive
8. O=C1c2ccccc2C(=O)c2c1cccc2N1CCN(Cc2ccccc2)CC1	10 µM (active)
9. O=C(CCCN1C(=O)/C(=C/c2cccs2)SC1=S)Nc1ccc(O)cc1	inactive
10. Cc1ccc(Cn2c(=O)n(Cc3nc(-c4ccccc4)no3)c(=O)c3cc4c(cc32)OCO4)cc1	inactive
11. CC(OC(=O)CNC(=O)c1cccc(F)c1)C(=O)NC1CCCCC1C (stereo unspecified)	inactive
